The reported measurements were obtained from PubChem BioAssay (NCI).

Record form. Attribute: TGI. Fill in for each entry.
Tested on: SF-268 CNS
assay: NCI tumour cell line growth inhibition, 48 h
*1 amine or outer side, *2 acyl side, *3 side chain or, on linkers, in order; H or OH if unused. Where a SMILES comes first, the peptide text is derived from it. Bridges are numbered along the chain shown (N, C = ends). [ ]: non-standard residue; d: D form. The star is where a group is joined. Phe(3-Me) = Cc1cccc(C[C@H](N)C(=O)O)c1; NH(4-Cl-2-F-phenyl) = Fc1cc(Cl)ccc1N*; Pro(4R-Me) = C[C@H]1CN[C@H](C(=O)O)C1; Propanoyl(3-NMe2) = CN(C)CCC(=O)*; Hyp = O=C(O)[C@@H]1C[C@@H](O)CN1; aThr = C[C@H](O)[C@H](N)C(=O)O; Pip = O=C(O)[C@@H]1CCCCN1; CO = O=C([*:1])[*:2]

For the molecule shown here, COC(Cc1ccccc1)NC(C)=O (stereo unspecified) , give the reported TGI.
> 100 µM

Follow-up item: Cc1cccc(C[C@H](NC(=O)Nc2ccc(Cl)cc2F)C(=O)N[C@@H]2C(=O)N3C[C@H](OC(=O)CCN(C)C)C[C@H]3C(=O)N3CCCC[C@H]3C(=O)N[C@@H](C)C(=O)N3C[C@H](C)C[C@H]3C(=O)O[C@H]2C)c1 ({NH(4-Cl-2-F-phenyl)-CO}-[Phe(3-Me)][aThr][Hyp](Propanoyl(3-NMe2))[Pip]A[Pro(4R-Me)]; ester 2-C)
4.08 µM

Follow-up item: O=C(CCl)Nc1ccc2c(c1)C(=O)c1ccc(NC(=O)CCl)cc1C2=O
1.92 µM

Follow-up item: COc1cc(/C=C(\C#N)c2ccccn2)cc(Br)c1O
> 100 µM

Follow-up item: CNC1C(OC2C(OC3C(O)C(O)C(O)C(O)C3O)OC(C)C2(O)CO)OC(CO)C(O)C1O (stereo unspecified) (tested in a mixture with another compound)
> 100 µM

Follow-up item: COc1cc2c(cc1O)C(C)Cc1cc3c(cc1N(C)CC2)OCO3 (stereo unspecified)
36.2 µM

Follow-up item: COc1cc(NC(N)=NCCC(C)(C)c2ccc(C(F)(F)F)cc2)ncc1C#N
4.27 µM

Follow-up item: COC(=O)NN1C(=O)C(=P(c2ccccc2)(c2ccccc2)c2ccccc2)C(C(=O)OC)=C1C
> 100 µM

Follow-up item: CC(=O)c1ccc(NCN2C(=O)c3ccccc3C2=O)cc1
> 100 µM

Follow-up item: CC(C)(C)NC1C2CCC(C)(C1O)C2(C)C (stereo unspecified)
> 100 µM

Follow-up item: COC(=O)NN1C(C)=C(C(=O)OC)C2(CCOC2=O)C1(C)O (stereo unspecified)
> 100 µM
